- Test system: influenza virus A/Taiwan/1/86 (H1N1)
- METHOD: organism not typed
- Assay type: cell-based
- TEST CONTEXT: 72 h; MDCK cells infected by influenza A/Taiwan/1/86 (H1N1); three days post-virus exposure; ATP levels; read-out: FLU-AVE-MDCK-ATP-TW_pEC50 (converted)
For each entry below, report its EC50 value.
Please reply with the bare figure in nM and do not write the unit itself.

Requested read-out: EC50. Entry: CC(C)(c1nccs1)C(CC(=O)O)Nc1nc(-c2c[nH]c3ncc(Cl)cc23)c(C#N)cc1F (stereo not shown)
0.251

Requested read-out: EC50. Entry: C=CCC(C)(C)C(CC(=O)O)Nc1nc(-c2c[nH]c3ncc(Cl)cc23)c(C#N)cc1F (stereo not shown)
1

Requested read-out: EC50. Entry: CC(C)(c1cccs1)C(CC(=O)O)Nc1nc(-c2c[nH]c3ncc(Cl)cc23)ncc1F (stereo not shown)
2.51

Requested read-out: EC50. Entry: Cn1ccc(C(C)(C)C(CC(=O)O)Nc2nc(-c3c[nH]c4ncc(Cl)cc34)c(C#N)cc2F)n1 (stereo not shown)
2.51

---

- System: influenza virus A/Taiwan/1/86 (H1N1)
- METHOD: organism not typed
- Assay type: cell-based
- TEST CONTEXT: 72 h; MDCK cells infected by influenza A/Taiwan/1/86 (H1N1); three days post-virus exposure; ATP levels; read-out: FLU-AVE-MDCK-ATP-TW_pEC50 (converted)
For each entry below, report its EC50 value.
Please reply with the bare figure in nM and do not write the unit itself.

Requested read-out: EC50. Entry: CC1(C(CC(=O)O)Nc2nc(-c3c[nH]c4ncc(Cl)cc34)ncc2F)COC1 (stereo not shown)
1000

Requested read-out: EC50. Entry: CC(C)(c1ccccn1)[C@@H](CC(=O)O)Nc1nc(-c2c[nH]c3ncc(Cl)cc23)c(C#N)cc1F (single isomer, unassigned)
5.01

Requested read-out: EC50. Entry: CC(C)(c1cccs1)C(CC(=O)O)Nc1nc(-c2c[nH]c3ncc(Cl)cc23)c(C#N)cc1F (stereo not shown)
0.631

Requested read-out: EC50. Entry: CC(C)(c1ccccn1)[C@H](CC(=O)O)Nc1nc(-c2c[nH]c3ncc(Cl)cc23)c(C#N)cc1F (single isomer, unassigned)
0.00631
